cytotoxicity at 70.5 h: recorded values
- Protocol: Human HepG2 cell viability assay in 384 well format
- Format: toxicity, cell-based
- Design: dose 125 nL, time 70.5 hour; concentration not given beside the values
- Measurement Parameters: HepG2 cells, read-out: Inhibition

Compound	Unit Abbrev	cytotoxicity at 70.5 h
Cc1ccccc1C(=O)N1C[C@@H]2CCN(c3cccnc3)C[C@@H]2C1	%	-4.88
CC(=O)N1CCC(c2cc(C(F)(F)F)n3ccnc3n2)CC1	%	5.43
CS(=O)(=O)N[C@@H]1CN(C(=O)c2cnccn2)[C@@H]2CCCO[C@@H]21	%	29.4
CC(C)c1nc(C(=O)N2CCc3ccccc3C2C(=O)O)cs1 (centres undefined)	%	-2.12
COc1c(C2CCCN2C(=O)c2ccc(C#N)cc2)c(C)nn1C (centres undefined)	%	-9.49
CN(Cc1ccccn1)C(=O)c1nn(C)c2c1CCN(CC1CC1)C2	%	-1.96
COCCOC1CCN(C(=O)NCc2cc(C)oc2C)CC1	%	-8.46
O=C(c1ccccc1F)N1C[C@@H]2COC[C@]2(COCc2cccnc2)C1	%	-1.45
O=C1CC2(CCN(Cc3ccncc3)C2)CN1c1cccc(F)c1 (centres undefined)	%	-12.5
COC(=O)N1CCCCC1C(=O)N1CCN(c2cccnc2)CC1 (centres undefined)	%	6.34
Cn1cnnc1C1CCCN(C(=O)Cc2ccc3c(c2)OCCO3)C1 (centres undefined)	%	0.026
CC(C)Cc1noc(C2CCCN(C(=O)CCc3cnn(C)c3)C2)n1 (centres undefined)	%	-8.4
Cc1cc(N2CCN(C(=O)c3cnn(C(C)C)c3)CC2)cc(C)n1	%	7.11
Cc1noc(C)c1CC(=O)N1CCCN(Cc2cscn2)CC1	%	-2.59

* * *

- Protocol: Human HepG2 cell viability assay in 384 well format
- Format: toxicity, cell-based
- Parameters: dose 125 nL, time 70.5 hour; concentration not given beside the values
- Measurement Parameters: HepG2 cells, read-out: Inhibition
cytotoxicity at 70.5 h: recorded values

Molecule	cytotoxicity at 70.5 h
CCOCC(=O)NCCc1nc(C)cc(C(F)(F)F)n1	-10.8%
O=C1NCCN1C1CCN(Cc2coc(-c3ccc(F)cc3)n2)CC1	-2.32%
CCc1nc(CN2CCOC(CN(CC)c3cccnn3)C2)cs1 (stereo not given)	-12.8%
COc1cc(NC(=O)N(C)C(C2CC2)C2CC2)ncn1	-3.68%
Cc1c(NCc2ccccc2C#N)cccc1S(=O)(=O)NC1CC1	5.79%
CCn1cc(CN2CCCN(C(=O)c3c(C)oc(C)c3C)CC2)cn1	-12.8%
Cc1nn2cnnc2c(C)c1CCC(=O)Nc1nnc(C2CC2)s1	-10.7%
Cc1ncc(CNC(=O)Nc2cc(C(F)(F)F)c[nH]c2=O)s1	0.0851%
CN(C)CCOCC1CN(Cc2ccsc2)Cc2nnn(C)c21 (stereo not given)	30.5%
COCCN1CCC12CCN(C(=O)c1ccsc1)CC2	-11.4%
CC(C)c1nc(CN(C)C(=O)Cn2nc3ccccc3n2)no1	-10.4%
CC(C)CCN1CCN(C(=O)c2c[nH]c(=O)[nH]2)CC1	-8.02%
Cc1nccn1C1CCCN(C(=O)Cc2cn3ccccc3n2)C1 (stereo not given)	16.9%
Cc1ccc(CCC(=O)N(C)CCN2CCOCC2)c(C)c1	-0.456%
O=C(CC1CC1)N1CCC2(COCc3cnc(-c4ccccc4)nc32)C1 (stereo not given)	-8.52%
COC[C@@H]1CC[C@H]2[C@H](CCN2S(=O)(=O)c2cccc(C)c2)O1	-11.1%
O=C(c1ccc(COc2ccc(Cl)cc2)o1)N1N=CCC1(O)C(F)(F)F (stereo not given)	10.7%
Cc1cc(CN(C)C2CCCN(Cc3noc(C4CC4)n3)C2)on1 (stereo not given)	-9.71%
Cc1nn(C)c(Cl)c1S(=O)(=O)N(CC(N)=O)CC(C)C	-16.6%
COc1ccc(CNC(=O)c2ccoc2CN2CCNC(=O)C2)cc1	22.4%

* * *

cytotoxicity at 70.5 h: recorded values
- Protocol: Human HepG2 cell viability assay in 384 well format
- Format: toxicity, cell-based
- Set-up: dose 125 nL, time 70.5 hour; concentration not given beside the values
- Measurement Parameters: HepG2 cells, read-out: Inhibition
Measure: cytotoxicity at 70.5 h (%)

Molecule	Measure	Reported
COCCCN1CC2(CCCN(c3ncc(Cl)cc3F)C2)CCC1=O (centres undefined)	cytotoxicity at 70.5 h	3.03
COCC(=O)NC[C@H]1C[C@@H]2CCN1C[C@@H]2c1cc(-c2cccs2)nn1C	cytotoxicity at 70.5 h	-7.87
O=C(c1cn(CC(=O)N2CCc3[nH]cnc3C2)c2ccccc12)C1CC1	cytotoxicity at 70.5 h	-5.73
Cc1cc(N)cc(C2CN(Cc3cc[nH]n3)CCO2)n1 (centres undefined)	cytotoxicity at 70.5 h	-6.43
Cc1nn(C)c2c(=O)n(CC(=O)NCc3ccc(N(C)C)cc3)ccc12	cytotoxicity at 70.5 h	-0.296
CNC(=O)C1(N2CCC[C@H]2C(=O)NC2CCCCC2)CCOCC1	cytotoxicity at 70.5 h	5.4
CNC(=O)CCc1cc(C2CCN(c3cnccn3)CC2)nc(C)n1	cytotoxicity at 70.5 h	-8.81
Cc1ccc(CNC(=O)CC2C(=O)NCCN2Cc2ccccc2C)s1 (centres undefined)	cytotoxicity at 70.5 h	-0.0744
CC(C)C(O)CNC(=O)Nc1cnn(Cc2ccccc2)c1 (centres undefined)	cytotoxicity at 70.5 h	-1.15
CCCc1ccc(N2CCN(Cc3nc4ccccc4n3C)CC2)cc1	cytotoxicity at 70.5 h	19.9
Cc1cccc(-c2cc(C(=O)O)sn2)c1	cytotoxicity at 70.5 h	-14.1
CCNc1cc2c(nn1)CCN(C(=O)c1ccc(C(N)=O)cc1)C2	cytotoxicity at 70.5 h	20.2
NC(=O)NC(=O)CCSCc1cc(F)cc2cccnc12	cytotoxicity at 70.5 h	-29.1
Cc1ccc(C#N)c(N2CCCC(c3nccn3Cc3cscn3)C2)n1 (centres undefined)	cytotoxicity at 70.5 h	-3.22
O=S(=O)(C1CC1)N1CCC(Cn2cccn2)CC1	cytotoxicity at 70.5 h	-7.23
CCc1ncc2c(n1)CN(C(=O)c1c(C)[nH]c(C(C)=O)c1C)C2	cytotoxicity at 70.5 h	-9.15
Cn1ncc2c1CCCC2NCc1cccnc1 (centres undefined)	cytotoxicity at 70.5 h	-18.9
O=C(N1CCCC1)C1(Cc2ccc(-c3cccs3)cc2)CCNC1 (centres undefined)	cytotoxicity at 70.5 h	2.43
COc1cc(NC(=O)N(C)Cc2ccc(Br)o2)ncn1	cytotoxicity at 70.5 h	-8.49
Cc1nc2oc(C(=O)N3CCOCC3)c(N)c2c2c1CCCC2	cytotoxicity at 70.5 h	-17.3
COc1cccc(S(=O)(=O)N2CCn3cnc(COCC4CC4)c3C2)c1	cytotoxicity at 70.5 h	-10
CC(C)c1nc(/C=C/c2cnn(-c3ccccc3)c2)ncc1C(=O)O	cytotoxicity at 70.5 h	-1.23
Cc1cccc(C(=O)N2CCC(Cc3cnc4[nH]ccc4c3)CC2)n1	cytotoxicity at 70.5 h	-7.84
O=C1N(Cc2ccncc2)CCC12CCCNC2 (centres undefined)	cytotoxicity at 70.5 h	-4.76
CCC(=O)N1CCN(c2ncnc3cc4c(cc23)OCCO4)CC1	cytotoxicity at 70.5 h	-4.42
O=C(NCC(F)(F)F)c1ccncc1	cytotoxicity at 70.5 h	12.7
CN(CCc1ccccc1)Cc1c(C2CCOCC2)[nH]c2ncccc12	cytotoxicity at 70.5 h	-2.01
N#Cc1cccc(CNc2cc(CO)ccc2Cl)c1	cytotoxicity at 70.5 h	-15.1
CNC(=O)C1CCN(c2nccc(CCC(F)(F)F)n2)C1 (centres undefined)	cytotoxicity at 70.5 h	-3.72
CC1(C)O[C@@](C)([C@H]2CC3(CCN(c4ncccn4)CC3)CO2)CC[C@@H]1O	cytotoxicity at 70.5 h	-4.22
COc1ccc(C(=O)c2cnc(C(C)C)n2C)cc1	cytotoxicity at 70.5 h	17.7
CC(c1ccco1)N(C)C(=O)NCCOc1ccc(C#N)cc1 (centres undefined)	cytotoxicity at 70.5 h	-8.15
Cn1cnc2c1C(COCC1CCOCC1)CN(C(=O)C1CC=CC1)C2 (centres undefined)	cytotoxicity at 70.5 h	-2.11
COC(=O)c1cccc(C(=O)N2CCN(c3ccc(OC)cc3)CC2)n1	cytotoxicity at 70.5 h	-7.54

* * *

- Protocol: Human HepG2 cell viability assay in 384 well format
- Type: toxicity, cell-based
- Parameters: dose 125 nL, time 70.5 hour; concentration not given beside the values
- Measurement Parameters: HepG2 cells, read-out: Inhibition

Compound	cytotoxicity at 70.5 h / %
OC1(CNCc2noc(Cc3ccccc3)n2)CCCNC1 (stereo unspecified)	0.455
Cc1ccccc1C(=O)N1CC[C@@H]2CN(c3ncccn3)CCO[C@@H]2C1	-10.9
COc1ccc(C)cc1NC(=O)Nc1cnc(O)nc1O	-6.34
CC(O)CNCc1c(C(C)C)nn(C)c1N1CCOCC1 (stereo unspecified)	-0.301
CC(C)c1n[nH]c(C2CN(C(=O)CCCn3cccn3)CCO2)n1 (stereo unspecified)	-3.52
Cc1nnc(NC(=O)NC(C)C(=O)NC2CCCC2)s1 (stereo unspecified)	-3.86
CNS(=O)(=O)c1cc(C(=O)N2CCCCCC2CC(C)C)co1 (stereo unspecified)	-3.95
N#CCC(=O)NCc1nnc2n1CCN(Cc1ccco1)C2	-13
O=C(c1ccno1)N1CC[C@@H]2CN(C3CCOCC3)CCO[C@@H]2C1	-5.94
Cn1nccc1CNS(=O)(=O)c1cc(F)ccc1Br	-6.89
CC(C)c1nccn1C1CCCN(C(=O)c2ccc(=O)n(C)n2)C1 (stereo unspecified)	-8.03
COC1CCCOC12CCN(C(=O)c1ccc3[nH]nnc3c1)CC2 (stereo unspecified)	-5.57
O=C(c1ccco1)N1CCO[C@@H]2CN(Cc3nccs3)CC[C@@H]2C1	-6.2
COc1cccc2c1OCC(C(=O)NCCc1nc3c(s1)CCC3)C2 (stereo unspecified)	-5.62
COCCCN(Cc1ccncc1)C(=O)CSc1ccc(F)cc1	-5.19
N#Cc1c(F)cccc1N1CCCC(C(=O)Nc2nccs2)C1 (stereo unspecified)	-19.5
CS(=O)(=O)Cc1ccc(CNC(=O)c2cccnc2O)cc1	9.83
O=C(CC1CC1)N1C[C@H]2CCN[C@H]2C1	-4.97
Cn1ccc2c(NC(=O)Cn3ncc4c(c3=O)CCCC4)cccc21	6.85
CCSCCC(C)NC(=O)Nc1cccn(C)c1=O (stereo unspecified)	-10
CCOC(C)c1noc(CN2CCN(c3nnc(C)s3)CC2)n1 (stereo unspecified)	-4.45
O=C(CCCOc1ccccc1)N1CCCC1Cn1cccn1 (stereo unspecified)	-3.8
Cc1ccc(NC2CCN(C(=O)Cc3cccs3)CC2)nn1	2.71
CN(C)S(=O)(=O)N1CCN(c2ccnc(N3CCCC3)n2)CC1	-12.4
CC(NC(=O)NCc1ccccc1Cl)c1ccccn1 (stereo unspecified)	19.4
CN(C)C(=O)c1ccc2c(c1)nc(N1CC[C@H](O)C1)n2C	19.5
CNc1nc2c(s1)C(c1cc(Cl)ccc1F)CC(=O)N2 (stereo unspecified)	57.6
Cc1noc(C)c1CN1Cc2cnn(C)c2C(COCC2CC2)C1 (stereo unspecified)	-10.8
CN(C)C(=O)CN1C[C@@H]2CC[C@H](C1)N(C(=O)CCCn1cncn1)C2	-8.72
Cc1ccc(C)c(C(NC(=O)C(C)(C)C)c2cccnc2)c1 (stereo unspecified)	-4.24
COc1cc2c(cc1CN1CCn3c(CO)nnc3C1)CCC2	8.8
COc1ccc(-n2ccc(CNCc3ccc(OC)c(O)c3)n2)cc1	2.11
COc1ccc(CC(=O)N2CCC(c3nncn3C)CC2)cc1F	-10.5
Cc1ccc(CSc2nc(N)cc(NCCC(=O)N3CCCC3)n2)cc1	-4.18
COCCCN(C)C(=O)Cn1cccc(OC)c1=O	-10.6
CN(Cc1cc2n(n1)CCN(C(=O)[C@H]1CCCO1)C2)Cc1nccs1	46.3
CCN(CC)c1ccc(NS(=O)(=O)c2cncc(F)c2)cn1	-0.536
Cn1nc(C(=O)NCc2cccnc2)c2c1CCS(=O)(=O)C2	24.8
O=C(Cc1cccc(F)c1)N1CCc2ncnc(NC3CC3)c2CC1	1.87
CCc1noc(CN(C)Cc2cc3ccc(Cl)cc3[nH]c2=O)n1	-5.21
O=C(CC1CCCCC1)N1C[C@H]2CC[C@@H]1CN(Cc1cccnc1)C2	-13.3
